- Tested on: RAW macrophages
- method description: Cell viability (CellTiter-Glo), RAW macrophages
- Format: cell-based, mouse
- recorded conditions: CellTiter-Glo
observation type: Cell viability (%) RAW macrophages 50 μM

| molecule | result value |
| --- | --- |
| CCNC(=O)c1ncn2c1[C@@H](C)N=C(c1ccccc1F)c1cc(Br)ccc1-2 | 100 ± 7% |
| C#Cc1ccc2c(c1)C(c1ccccc1F)=NC(C)c1c(C(=S)NCC)ncn1-2 (stereo not drawn) | 100 ± 14% |

# context switch: different molecule, same Cell viability (%) RAW macrophages 50 μM
Prompt: Look up and report Cell viability (%) RAW macrophages 50 μM, with RAW macrophages as system, for CC1N=C(c2ccccc2F)c2cc(Cl)ccc2NC1=O (stereo not drawn)
Response: 97 ± 8%
